Target: HMM-mfMSR1 (monkey MSR1 extracellular domain)
Sequence (as listed by the source): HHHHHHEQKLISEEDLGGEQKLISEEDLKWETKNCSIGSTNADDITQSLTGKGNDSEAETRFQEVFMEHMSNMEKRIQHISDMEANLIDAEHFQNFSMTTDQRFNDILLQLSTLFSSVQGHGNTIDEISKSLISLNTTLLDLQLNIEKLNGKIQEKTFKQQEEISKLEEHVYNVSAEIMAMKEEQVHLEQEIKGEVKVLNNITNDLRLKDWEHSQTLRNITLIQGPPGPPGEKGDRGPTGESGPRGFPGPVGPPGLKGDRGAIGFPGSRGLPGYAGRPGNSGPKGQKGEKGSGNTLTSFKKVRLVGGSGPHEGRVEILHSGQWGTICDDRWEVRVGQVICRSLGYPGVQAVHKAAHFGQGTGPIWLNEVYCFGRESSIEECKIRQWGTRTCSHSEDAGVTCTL
Test: Biacore surface plasmon resonance binding kinetics of anti-MSR1 mAbs, antibody-capture format
Conditions: 25° C.; analyte HMM-mfMSR1; * = no dissociation observed, kd manually fixed at 1.00E−05; NB = no binding observed
quantity.name: kd (s⁻¹)
# output: bare number, implied unit s⁻¹

Consider the following illustrative entries.
[
  {
    "molecule": "H1H27731P-N297Q: one of \"Twelve anti-MSR1 antibodies\"; \"made with an N297Q single point mutation in human Fcγ portion\" (antibody, V domains shown) VH: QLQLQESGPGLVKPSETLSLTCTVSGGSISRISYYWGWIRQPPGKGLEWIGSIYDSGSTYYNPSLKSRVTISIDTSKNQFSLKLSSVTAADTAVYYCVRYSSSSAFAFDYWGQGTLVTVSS VL: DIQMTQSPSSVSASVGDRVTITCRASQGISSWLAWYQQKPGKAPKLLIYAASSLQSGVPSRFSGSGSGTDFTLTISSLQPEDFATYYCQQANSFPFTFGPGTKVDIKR",
    "data.value": "4.69e-05"
  },
  {
    "molecule": "H1H21227N-N297Q: \"modified versions of 21227N (H1H21227N-N297Q and H1H21227N-N297D)\"; anti-MSR1 antibody \"with a N297Q single point mutation\" (antibody, V domains shown) VH: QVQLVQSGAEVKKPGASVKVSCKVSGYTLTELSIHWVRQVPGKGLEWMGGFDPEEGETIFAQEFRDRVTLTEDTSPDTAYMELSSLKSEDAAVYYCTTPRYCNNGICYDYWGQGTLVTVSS VL: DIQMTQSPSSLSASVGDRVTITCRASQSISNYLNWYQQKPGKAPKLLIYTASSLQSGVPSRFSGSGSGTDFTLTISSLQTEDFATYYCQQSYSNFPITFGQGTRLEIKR",
    "data.value": "7.51e-05"
  },
  {
    "molecule": "H1H21231N-N297Q: modified version of \"21231N (H1H21231N-N297Q) anti-MSR1 antibodies\" with \"a N297Q single point mutation\" (antibody, V domains shown) VH: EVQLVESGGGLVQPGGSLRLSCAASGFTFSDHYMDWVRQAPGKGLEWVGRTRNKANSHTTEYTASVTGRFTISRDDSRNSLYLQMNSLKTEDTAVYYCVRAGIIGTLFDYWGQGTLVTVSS VL: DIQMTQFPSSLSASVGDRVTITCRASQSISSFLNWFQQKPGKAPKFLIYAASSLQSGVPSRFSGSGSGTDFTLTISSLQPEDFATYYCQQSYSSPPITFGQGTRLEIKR",
    "data.value": "9.03e-05"
  },
  {
    "molecule": "H1H21227N-N297D: \"The 21227N antibody was also produced as a third version with a N297D mutation\" (antibody, V domains shown) VH: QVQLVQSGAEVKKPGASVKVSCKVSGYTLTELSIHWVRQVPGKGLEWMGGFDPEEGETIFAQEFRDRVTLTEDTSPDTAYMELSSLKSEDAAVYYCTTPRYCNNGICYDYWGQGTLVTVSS VL: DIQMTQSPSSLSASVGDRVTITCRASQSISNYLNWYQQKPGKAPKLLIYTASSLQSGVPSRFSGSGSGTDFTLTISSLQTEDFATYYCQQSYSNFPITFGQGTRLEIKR",
    "data.value": "4.03e-05"
  },
  {
    "molecule": "H1H21231N: \"anti-MSR1 antibodies ... (21227N, 21231N, 21234N) were produced with the original human Fcγ portion\"; \"H1H\" = human IgG1 Fc (antibody, V domains shown, human IgG1 Fc, \"anti-MSR1 antibodies ; (21227N, 21231N, 21234N) were produced with the original human Fcγ portion\"; \"H1H\" = human IgG1 Fc) VH: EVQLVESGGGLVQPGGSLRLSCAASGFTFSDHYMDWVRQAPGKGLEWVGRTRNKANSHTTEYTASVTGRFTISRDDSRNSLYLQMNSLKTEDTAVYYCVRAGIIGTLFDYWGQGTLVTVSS VL: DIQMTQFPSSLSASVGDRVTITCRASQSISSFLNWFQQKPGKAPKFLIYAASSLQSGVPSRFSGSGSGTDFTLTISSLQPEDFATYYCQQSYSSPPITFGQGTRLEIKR",
    "data.value": "6.39e-05"
  }
]

Lab note: H1H27729P-N297Q: anti-MSR1 antibody "made with an N297Q single point mutation in human Fcγ portion" (antibody, V domains shown) VH: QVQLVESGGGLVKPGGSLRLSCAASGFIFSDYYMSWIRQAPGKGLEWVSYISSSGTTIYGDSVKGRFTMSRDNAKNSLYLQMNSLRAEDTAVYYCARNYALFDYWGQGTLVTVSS VL: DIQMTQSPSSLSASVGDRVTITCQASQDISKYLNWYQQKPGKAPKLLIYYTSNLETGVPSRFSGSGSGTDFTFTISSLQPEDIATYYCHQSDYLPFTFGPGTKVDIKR gave kd of 0.00212

Please fill in: kd reported for H1H27747P-N297Q (antibody, V domains shown) VH: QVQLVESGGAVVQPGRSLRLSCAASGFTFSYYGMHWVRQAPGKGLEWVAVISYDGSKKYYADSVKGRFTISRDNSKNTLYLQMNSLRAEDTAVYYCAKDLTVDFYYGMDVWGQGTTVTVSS VL: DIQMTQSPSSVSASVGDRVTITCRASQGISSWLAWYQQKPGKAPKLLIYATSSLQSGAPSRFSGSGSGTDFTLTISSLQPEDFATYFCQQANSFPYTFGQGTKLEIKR = 0.000874

So, H1H21227N: "anti-MSR1 antibodies ... (21227N, 21231N, 21234N) were produced with the original human Fcγ portion"; "H1H" = human IgG1 Fc (antibody, V domains shown, human IgG1 Fc, "anti-MSR1 antibodies ; (21227N, 21231N, 21234N) were produced with the original human Fcγ portion"; "H1H" = human IgG1 Fc) VH: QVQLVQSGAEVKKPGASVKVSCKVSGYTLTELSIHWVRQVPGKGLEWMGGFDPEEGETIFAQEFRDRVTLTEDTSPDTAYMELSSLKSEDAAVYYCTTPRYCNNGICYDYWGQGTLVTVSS VL: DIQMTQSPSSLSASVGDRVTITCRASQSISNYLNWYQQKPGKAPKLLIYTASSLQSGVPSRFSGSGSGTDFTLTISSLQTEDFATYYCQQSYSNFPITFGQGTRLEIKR ? Its kd was 4.41e-05
